Source of measurements: paper PMC9482650

Target: T1, RADIL, Q96JH8
T1 sequence (Q96JH8 971-1071, limits assumed, looked up): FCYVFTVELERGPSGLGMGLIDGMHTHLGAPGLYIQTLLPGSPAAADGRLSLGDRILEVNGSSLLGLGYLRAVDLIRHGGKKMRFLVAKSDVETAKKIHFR
Experiment: holdup assay
Set-up: key: below the threshold = too weak to quantify, mostly under pKd 3.1 to 4
Conditions: plain residues with an end cap or a label only (N-terminal biotin on a linker: ado-ado)
endpoint: pKd

| binder | endpoint | val |
| --- | --- | --- |
| SVTSERETNI [SLC16A7, O60669] | pKd | below the threshold |
| GEDRSPPTAL [MKNK1, Q9BUB5] | pKd | below the threshold |
| RFQQRMQTHV [KIRREL1, Q96J84] | pKd | 3.9 |
| PSVGSKKTVL [REELD1, A0A1B0GV85] | pKd | below the threshold |
